Assay: DBH (dopamine beta-hydroxylase) activity expressed as Ki value determined by degree to which compound inhibited conversion of tyramine to octopamine
In this section we review reported log10(Ki) values for a set of compounds.
result type: log10(Ki) (log10 of the value in nM)

{"structure string": "Sc1nccn1Cc1cccs1", "result type": "log10(Ki)", "readout value": 2.87}
{"structure string": "Cc1ccc(CCn2ccnc2S)s1", "result type": "log10(Ki)", "readout value": 2.20}
{"structure string": "Sc1nccn1CCCCc1cccs1", "result type": "log10(Ki)", "readout value": 3.15}
{"structure string": "Sc1nccn1CCc1ccsc1", "result type": "log10(Ki)", "readout value": 1.40}
{"structure string": "Sc1nccn1CCc1cccs1", "result type": "log10(Ki)", "readout value": 1.41}
{"structure string": "Fc1cc(F)cc(Cn2cc[nH]c2=S)c1", "result type": "log10(Ki)", "readout value": 1.78}
{"structure string": "Sc1nccn1CCCc1cccs1", "result type": "log10(Ki)", "readout value": 2.68}

---

Molecular target: Dopamine beta-hydroxylase (Bos taurus)
Sequence (P15101 whole entry): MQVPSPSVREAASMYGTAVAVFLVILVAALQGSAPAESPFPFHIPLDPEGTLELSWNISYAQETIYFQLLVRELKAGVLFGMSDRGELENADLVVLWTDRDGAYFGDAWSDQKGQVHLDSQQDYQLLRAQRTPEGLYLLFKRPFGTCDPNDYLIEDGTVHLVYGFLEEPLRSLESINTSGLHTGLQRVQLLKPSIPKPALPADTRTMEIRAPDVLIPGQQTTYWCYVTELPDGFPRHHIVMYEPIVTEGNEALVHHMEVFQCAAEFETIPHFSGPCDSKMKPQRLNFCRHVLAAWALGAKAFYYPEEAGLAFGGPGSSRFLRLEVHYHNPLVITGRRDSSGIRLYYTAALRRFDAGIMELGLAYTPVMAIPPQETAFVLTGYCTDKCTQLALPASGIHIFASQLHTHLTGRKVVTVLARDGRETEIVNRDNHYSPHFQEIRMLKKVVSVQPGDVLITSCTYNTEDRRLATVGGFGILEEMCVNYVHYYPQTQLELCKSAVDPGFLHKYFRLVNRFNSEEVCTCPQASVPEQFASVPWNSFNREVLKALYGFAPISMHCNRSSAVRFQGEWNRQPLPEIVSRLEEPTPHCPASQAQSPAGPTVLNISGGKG
Assay: Inhibitory activity against bovine adrenal dopamine beta-hydroxylase (DBH)
IC50 values, listed per item

{"structure string": "Fc1cc(F)cc(Cn2cc[nH]c2=S)c1", "unit name": "µM", "IC50": 0.21}
{"structure string": "Sc1nccn1Cc1ccc(Cl)s1", "unit name": "µM", "IC50": 1}
{"structure string": "Sc1nccn1CCCc1cccs1", "unit name": "µM", "IC50": 1.9}
{"structure string": "S=c1[nH]ccn1Cc1ccco1", "unit name": "µM", "IC50": 6.3}
{"structure string": "Sc1nccn1CCCCc1cccs1", "unit name": "µM", "IC50": 3.6}
